- Tested on: HL-60
- Measurement description: Cytotoxicity against human HL-60 cells after 72 hrs by CCK-8 assay
- Type: functional, cell-based
Calls of active or inactive are those of the source. The rule behind the calls is not given here.
Parameter: Activity

INSERT INTO measurements (smiles_data, measured_value) VALUES
  ('CCCCCC(=O)[C@@]1(O)C=Cc2c(CC=C(C)C)ccc(O)c2[C@@H]1O', 'inactive'),
  ('CCCCC[C@H](O)[C@@H](O)C[C@H]1OC(=O)c2c(O)ccc(CC=C(C)C)c21', 'inactive'),
  ('CCCCC/C=C/C=C/c1cccc(O)c1CO', 'inactive'),
  ('CCCCC[C@H](O)C(=O)C[C@@H]1OC(=O)c2c(O)ccc(CC=C(C)C)c21', 'inactive'),
  ('CCCCCC(=O)[C@]1(O)C=Cc2c(CC=C(C)C)ccc(O)c2[C@H]1O', 'inactive'),
  ('CCCCC[C@H](O)[C@@H](O)C[C@@H]1OCc2c(O)ccc(CC=C(C)C)c21', 'inactive'),
  ('CCCCC[C@H](O)C(=O)C[C@H]1OC(=O)c2c(O)ccc(CC=C(C)C)c21', 'inactive');

These data points were gathered from ChEMBL document CHEMBL4819039.
